# SUBJECT OF TEST: T1, human AXL with a cynomolgus monkey extracellular domain (ECD) (Homo sapiens, UniProt P30530, P441T/S191N/S285L/T105A/T112A/T125N/T443A)
# T1 construct: aa 1-447); expressed in transfected cells; host or cells: HEK293T
# MEASUREMENT PROTOCOL: Flow cytometry binding to HEK293T cells transfected with human AXL with cynomolgus ECD
# COND: at least 3 experiments
PARAMETER MEASURED: Binding EC50 cynomolgus AXL Average (s.d.)

{"MOLECULE": "IgG1-AXL-733: human IgG1,κ anti-AXL antibody, VH SEQ ID NO:34, VL SEQ ID NO:35; FN1 domain binding (antibody, V domains shown, homo sapiens) VH: QVQLVESGGGVVQPGRSLRLSCAASGFSFSTYAMHWVRQAPGKGLEWVAVISYDGDNKYSADSVKGRFTISRDNSKNTLYLQMNSLRAEDTAVYYCARGRKLGIDAFDIWGQGTMVTVSS VL: AIQLTQSPSSLSASVGDRVTITCRASQGISSALAWYQQKPGKAPKLLIYDASSLESGVPSRFSGSGSGTDFTLTISGLQPEDFATYYCQQFNSYPFTFGPGTKVDIK", "TEST RESULT": "0.254 (0.114) μg/mL"}
{"MOLECULE": "IgG1-AXL-183-N52Q: point mutant of IgG1-AXL-183, VH SEQ ID NO:17, VL SEQ ID NO:18 (antibody, V domains shown, homo sapiens) VH: QVQLQQWGAGLLKPSETLSLTCAVYGGSFSGYYWSWIRQPPGKGLEWIGEIQQSGSTNYNPSLKSRVTISVDTSKNQFSLKLSSVTAADTSVYYCASGNWDHFFDYWGQGTLVTVSS VL: DIQMTQSPSSVSASVGDRVTITCRASQGISSWLAWYQHKPGKAPKLLIYATSSLQSGVTSRFSGSGSGTDFTLTISSLQPEDFATYYCQQAKSFPWTFGQGTKVEIK", "TEST RESULT": "0.324 (0.121) μg/mL"}
{"MOLECULE": "IgG1-AXL-726-M101L: point mutant of IgG1-AXL-726, VH SEQ ID NO:32, VL SEQ ID NO:33 (antibody, V domains shown, homo sapiens) VH: QVQLQQWGAGLLKPSETLSLTCAIDGGSFSGYYWSWIRQPPGKGLEWIGEISHSGRTNYNPSLKSRVTISIDTSKNQFSLKLSSVAAADTAVYYCARFITLIRGAIITHFDYWGQGALVTVSS VL: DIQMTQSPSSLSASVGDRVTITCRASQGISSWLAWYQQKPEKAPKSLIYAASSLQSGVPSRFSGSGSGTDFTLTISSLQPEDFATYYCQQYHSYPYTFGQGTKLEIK", "TEST RESULT": "0.250 (0.066) μg/mL"}

Working through the 2 molecules below one at a time, give Binding EC50 cynomolgus AXL Average (s.d.) for each.
1. IgG1-AXL-183: human IgG1,κ anti-AXL antibody, VH SEQ ID NO:16, VL SEQ ID NO:18; FN1 domain binding (antibody, V domains shown, homo sapiens) VH: QVQLQQWGAGLLKPSETLSLTCAVYGGSFSGYYWSWIRQPPGKGLEWIGEINQSGSTNYNPSLKSRVTISVDTSKNQFSLKLSSVTAADTSVYYCASGNWDHFFDYWGQGTLVTVSS VL: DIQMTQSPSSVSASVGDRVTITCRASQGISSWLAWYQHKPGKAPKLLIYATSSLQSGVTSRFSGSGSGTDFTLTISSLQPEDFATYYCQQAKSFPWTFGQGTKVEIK
2. IgG1-AXL-148: human IgG1,κ anti-AXL antibody, VH SEQ ID NO:5, VL SEQ ID NO:6; Ig2 domain binding (antibody, V domains shown, homo sapiens) VH: EVQLLESGGGLVQPGGSLRLSCAASGFTFSSYAMTWVRQAPGKGLEWVSAISISGGSTFYADSVKGRFTISRDNSKNTLYLQMNSLRAEDTAVYYCRGYSGYVYDAFDFWGQGTMVTVSS VL: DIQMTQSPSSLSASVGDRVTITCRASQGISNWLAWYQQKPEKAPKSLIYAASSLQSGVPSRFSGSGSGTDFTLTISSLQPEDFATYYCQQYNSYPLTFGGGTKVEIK

Given back:
0.309 (0.086) μg/mL
0.152 (0.080) μg/mL

Value source: patent US20200397913A1
